# procedure details: UV-visible absorption and fluorescence spectra, fluorescence quantum yields in solution
# Format: physicochemical
# experimental setup: CH2Cl2 solution (Table 2, Example 2)
measurement type: Absorption maxima (nm)
Give bare numbers, in nm.

These recorded examples may help you get a feel for the data.
compound	obs value
CC1=C(I)C(C)=[N+]2C1=C(c1c(C)cccc1C)c1c(C)c(I)c(C)n1[B-]2(F)F [Compound 19]	535
COc1ccc(C2=C3C(C)=CC(C)=[N+]3[B-](F)(F)n3c(C)cc(C)c32)cc1 [Compound 14]	500
COc1cc(C2=C3C(C)=CC(C)=[N+]3[B-](F)(F)n3c(C)cc(C)c32)cc(OC)c1OC [Compound 9]	502
CC1=CC(C)=[N+]2C1=C(c1c(C)cccc1C)c1c(C)cc(C)n1[B-]2(F)F [Compound 18]	501

Record Absorption maxima per entry; entries follow.
1. COc1cc(C2=C3C(C)=C(I)C(C)=[N+]3[B-](F)(F)n3c(C)c(I)c(C)c32)cc(OC)c1OC [Compound 10]
2. COc1ccc(C2=C3C(C)=C(I)C(C)=[N+]3[B-](F)(F)n3c(C)c(I)c(C)c32)cc1 [Compound 15]

535
533

----------
# procedure details: Fluorescence lifetime measurement
# Format: physicochemical
# experimental setup: methylene chloride solution (Table 9, Example 13)
measurement type: log10 of Fluorescence lifetime (log10 of the value in ns)
Hello, just confirming the data are log10 of Fluorescence lifetime with units of ns.

compound	log10 of Fluorescence lifetime
C#CC1=C(C)C2=C(c3ccc(OCCCCCCCCCCCC)c(OCCCCCCCCCCCC)c3)c3c(C)c(C#C)c(C)n3[B-](F)(F)[N+]2=C1C [Compound 6b]	0.59
CCCCCCCCCCCCOc1ccc(C2=C3C(C)=C(C#C[Si](C)(C)C)C(C)=[N+]3[B-](F)(F)n3c(C)c(C#C[Si](C)(C)C)c(C)c32)cc1 [Compound 5a]	0.64
CCCCCCCCCCCCOc1ccc(C2=C3C(C)=CC(C)=[N+]3[B-](F)(F)n3c(C)cc(C)c32)cc1OCCCCCCCCCCCC [Compound 3b]	0.61
CCCCCCCCCCCCOc1ccc(C2=C3C(C)=CC(C)=[N+]3[B-](F)(F)n3c(C)cc(C)c32)cc1 [Compound 3a]	0.59
C#CC1=C(C)C2=C(c3cc(OCCCCCCCCCCCC)c(OCCCCCCCCCCCC)c(OCCCCCCCCCCCC)c3)c3c(C)c(C#C)c(C)n3[B-](F)(F)[N+]2=C1C [Compound 6c]	0.48
CCCCCCCCCCCCOc1cc(C2=C3C(C)=CC(C)=[N+]3[B-](F)(F)n3c(C)cc(C)c32)cc(OCCCCCCCCCCCC)c1OCCCCCCCCCCCC [Compound 3c]	0.51
CCCCCCCCCCCCOc1cc(C2=C3C(C)=C(C#C[Si](C)(C)C)C(C)=[N+]3[B-](F)(F)n3c(C)c(C#C[Si](C)(C)C)c(C)c32)cc(OCCCCCCCCCCCC)c1OCCCCCCCCCCCC [Compound 5c]	0.64
CCCCCCCCCCCCOc1ccc(C2=C3C(C)=C(I)C(C)=[N+]3[B-](F)(F)n3c(C)c(I)c(C)c32)cc1OCCCCCCCCCCCC [Compound 4b]	-0.82
CCCCCCCCCCCCOc1ccc(C2=C3C(C)=C(I)C(C)=[N+]3[B-](F)(F)n3c(C)c(I)c(C)c32)cc1 [Compound 4a]	-0.68
CCCCCCCCCCCCOc1ccc(C2=C3C(C)=C(C#C[Si](C)(C)C)C(C)=[N+]3[B-](F)(F)n3c(C)c(C#C[Si](C)(C)C)c(C)c32)cc1OCCCCCCCCCCCC [Compound 5b]	0.66

Batch lookup, log10 of Fluorescence lifetime per entry.
1. CCCCCCCCCCCCOc1cc(C2=C3C(C)=C(I)C(C)=[N+]3[B-](F)(F)n3c(C)c(I)c(C)c32)cc(OCCCCCCCCCCCC)c1OCCCCCCCCCCCC [Compound 4c]
2. C#CC1=C(C)C2=C(c3ccc(OCCCCCCCCCCCC)cc3)c3c(C)c(C#C)c(C)n3[B-](F)(F)[N+]2=C1C [Compound 6a]

1: -0.72; 2: 0.56
